- assay.details: Biodistribution: organ distribution of F-18 signal in mice
- Assay type: in vivo, male NMRI mice
- protocol.conditions: kidney, 60 min post i.v. injection
- Protocol: Biodistribution and excretion studies were performed in male NMRI mice (body weight app. 30g; 3 animals per time point). The animals were kept under normal laboratory conditions at a temperature of 22±2° C. and a dark/light rhythm of 12 hours. Food and water were provided ad libitium. […] At 2, 5, 30, 60, 240 min post intravenous injection via the tail vein of ca. 150 kBq in 100 μl of the test compound, urine and feces were quantitatively collected. […]
test.readout: Organ distribution of F-18 signal, kidney

* O=C(NCC(=O)N1CCN(c2ccc(OCc3ccccc3)cc2)CC1)c1cccc(OCC[18F])c1 | 7.70 % ID/g
* O=C(NCC(=O)N1CCN(c2ccc(OCc3ccccc3)cc2)CC1)c1ccc([18F])nc1 [Example 10e] | 2.61 % ID/g
* O=C(NCC(=O)N1CCN(c2ccc(OCc3ccccc3)cn2)CC1)c1ccnc([18F])c1 [Example 14f] | 2.86 % ID/g
* O=C(NCC(=O)N1CCN(c2ccc(OCc3ccccc3)cc2)CC1)c1cccnc1[18F] [Example 12c] | 3.63 % ID/g
* O=C(NCC(=O)N1CCN(c2ccc(OCc3ccccc3)cc2)CC1)c1ccnc([18F])c1 [Example 11c] | 4.37 % ID/g

###

- assay.details: Biodistribution: organ distribution of F-18 signal in mice
- Assay type: in vivo, male NMRI mice
- protocol.conditions: pancreas, 2 min post i.v. injection
test.readout: Organ distribution of F-18 signal, pancreas (% ID/g)

- O=C(NCC(=O)N1CCN(c2ccc(OCc3ccccc3)cc2)CC1)c1ccc([18F])nc1 [Example 10e]: 4.59
- O=C(NCC(=O)N1CCN(c2ccc(OCc3ccccc3)cc2)CC1)c1cccc(OCC[18F])c1 [Example 3g]: 4.96
- O=C(NCC(=O)N1CCN(c2ccc(OCc3ccccc3)cc2)CC1)c1cccnc1[18F] [Example 12c]: 3.58
- O=C(NCC(=O)N1CCN(c2ccc(OCc3ccccc3)cc2)CC1)c1ccnc([18F])c1 [Example 11c]: 4.44
- O=C(NCC(=O)N1CCN(c2ccc(OCc3ccccc3)cn2)CC1)c1ccnc([18F])c1 [Example 14f]: 4.49

###

- assay.details: Biodistribution: organ distribution of F-18 signal in mice
- Format: in vivo, male NMRI mice
- protocol.conditions: testicle, 60 min post i.v. injection
- Description: Biodistribution and excretion studies were performed in male NMRI mice (body weight app. 30g; 3 animals per time point). The animals were kept under normal laboratory conditions at a temperature of 22±2° C. and a dark/light rhythm of 12 hours. Food and water were provided ad libitium. […] At 2, 5, 30, 60, 240 min post intravenous injection via the tail vein of ca. 150 kBq in 100 μl of the test compound, urine and feces were quantitatively collected. […]
Please mark true (1) if the recorded Organ distribution of F-18 signal, testicle is equal to or greater than 0.6 % ID/g, and false (0) if it falls below.

* O=C(NCC(=O)N1CCN(c2ccc(OCc3ccccc3)cc2)CC1)c1ccc([18F])nc1 [Example 10e] | false (0)
* O=C(NCC(=O)N1CCN(c2ccc(OCc3ccccc3)cn2)CC1)c1ccnc([18F])c1 [Example 14f] | false (0)
* O=C(NCC(=O)N1CCN(c2ccc(OCc3ccccc3)cc2)CC1)c1ccnc([18F])c1 [Example 11c] | true (1)
* O=C(NCC(=O)N1CCN(c2ccc(OCc3ccccc3)cc2)CC1)c1cccnc1[18F] [Example 12c] | false (0)
* O=C(NCC(=O)N1CCN(c2ccc(OCc3ccccc3)cc2)CC1)c1cccc(OCC[18F])c1 | true (1)

src = patent US20110250135A1
